Tested on: phenyl-p-quinone writhing
Experiment: phenyl-p-quinone writhing assay in mice (analgesic)
Assay type: in vivo, mouse (male, Charles River, CD-1)
Details: mouse; screening dose of 20 mg/kg, s.c.
Rule: Fulfilled for Analgesic Activity, % Inhibition of Writhing not less than 40%, Not fulfilled for anything less.

Known results for compounds:
INSERT INTO results (structure_smiles, class) VALUES
  ('O=C(Nc1cccc(Cl)c1)c1nc(-c2ccccc2)c2ccccc2c1O', 'Fulfilled'),
  ('Cc1csc(NC(=O)C2=C(O)c3ccccc3N(c3ccccc3)C2)n1', 'Not fulfilled'),
  ('O=C(Nc1cnccn1)C1=C(O)c2ccccc2N(c2ccccc2)C1', 'Not fulfilled');

-- ask Say whether Cc1cccc(NC(=O)c2cn(-c3ccccc3)c3ccccc3c2=O)n1 shows Analgesic Activity, % Inhibition of Writhing of 40% or more.
-- reply Not fulfilled

-- ask Say whether O=C(Nc1ccc(Cl)cn1)c1nc(-c2ccccc2)c2ccccc2c1O shows Analgesic Activity, % Inhibition of Writhing of 40% or more.
-- reply Fulfilled

-- ask Say whether Cc1ccc(NC(=O)c2cn(-c3ccccc3)c3ccccc3c2=O)nc1 shows Analgesic Activity, % Inhibition of Writhing of 40% or more.
-- reply Not fulfilled

Data provenance is patent US4786644A.
